B1: TPR 5TU (parent)
chain: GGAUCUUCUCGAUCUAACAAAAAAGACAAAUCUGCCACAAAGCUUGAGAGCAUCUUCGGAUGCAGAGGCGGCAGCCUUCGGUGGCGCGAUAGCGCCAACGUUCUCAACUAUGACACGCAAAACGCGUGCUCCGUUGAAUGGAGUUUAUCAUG

# Variants of: B1
# ASSAY METHOD TEXT: polymerase ribozyme fitness, log enrichment relative to wild type (log ratio); higher = more active; in vitro selection for triplet polymerase activity
Fewer inactive variants are shown than the library holds.
MEASUREMENT NAME: polymerase ribozyme fitness (log ratio)
The reply should be a number, written without any unit.

Solved entries (count: 3):
1. A60G A150G: -0.0266
2. U53A G117A: -0.303
3. C14G G50U C95U C96U A115G: -4.1

State the recorded polymerase ribozyme fitness (log ratio) for this entry: A24U G94A G143U
-3.4

State the recorded polymerase ribozyme fitness (log ratio) for this entry: C69G C85U G86A
-3.62

State the recorded polymerase ribozyme fitness (log ratio) for this entry: G58A A73C
-1.62

State the recorded polymerase ribozyme fitness (log ratio) for this entry: C32U A41U
-3.95

State the recorded polymerase ribozyme fitness (log ratio) for this entry: C85A G124U
-1.9

State the recorded polymerase ribozyme fitness (log ratio) for this entry: A16G A37U U134G
-3.68

State the recorded polymerase ribozyme fitness (log ratio) for this entry: A73G G126U
-0.214

State the recorded polymerase ribozyme fitness (log ratio) for this entry: C57A G65A U82G
-0.673

State the recorded polymerase ribozyme fitness (log ratio) for this entry: A60U U127G
-3.08

State the recorded polymerase ribozyme fitness (log ratio) for this entry: C87U U145G
-1.51

State the recorded polymerase ribozyme fitness (log ratio) for this entry: C85A A147G
-0.743

State the recorded polymerase ribozyme fitness (log ratio) for this entry: G84A U148A
-2.74

State the recorded polymerase ribozyme fitness (log ratio) for this entry: U55G G83A
-0.31

State the recorded polymerase ribozyme fitness (log ratio) for this entry: G48A G59A A60G A97G
-3.58

State the recorded polymerase ribozyme fitness (log ratio) for this entry: G83C C131G
-3.32

State the recorded polymerase ribozyme fitness (log ratio) for this entry: U6A A52C G81U C85G
-3.49

State the recorded polymerase ribozyme fitness (log ratio) for this entry: A17G C57U A113C
-3.96

State the recorded polymerase ribozyme fitness (log ratio) for this entry: A3U G58C
-0.0781
